- measurement-context: Liquid; Visual observation in an unstirred cell
metric: Critical temperature (K)

{"molecule": "O=C=O [carbon dioxide]", "Critical temperature (K)": 304.8}
{"molecule": "CC(C)CC(C)(C)C", "Critical temperature (K)": 544.1}
{"molecule": "C=CCC", "Critical temperature (K)": 421.2}
{"molecule": "CC(C)C", "Critical temperature (K)": 409.9}

----------
- measurement-context: Liquid; Direct measurement
metric: Critical pressure (kPa)

Worked examples follow.
{"compound": "C=CCC [1-butene]", "quantity-unit": "kPa", "Critical pressure": 4000}
{"compound": "CC(C)CC(C)(C)C [2,2,4-trimethylpentane]", "quantity-unit": "kPa", "Critical pressure": 2570}

I. CC(C)C [2-methylpropane]
II. O=C=O [carbon dioxide]
Query: Kindly compare I with II and tell me which has the lower Critical pressure figure. Reply briefly: the label of your chosen item.
Response: I
